Data provenance is patent US20170298395A1.

# System: cbb promoter
# Format: cell-based, Ralstonia eutropha
# SETUP_CONDITIONS: Table 9, chemoautotrophic growth conditions
Listed below: Chemoautotrophic β-galactosidase activity values for each entry.

MOLECULE	RESULT
T232A (protein) MSSFLRALTLRQLQIFVTVARHASFVRAAEELHLTQPAVSMQVKQLESVVGMALFERVKGQLTLTEPGDRLLHHASRILGEVKDAEEGLQAVKDVEQGSITIGLISTSKYFAPKLLAGFTALHPGVDLRIAEGNRETLLRLLQDNAIDLALMGRPPRELDAVSEPIAAHPHVLVASPRHPLHDAKGFDLQELRHETFLLREPGSGTRTVAEYMFRDHLFTPAKVITLGSNEAIKQAVMAGMGISLLSLHTLGLELRTGEIGLLDVAGTPIERIWHVAHMSSKRLSPASESCRAYLLEHTAEFLGREYGGLMPGRRVA	4626 nmol/min/mg of protein
G125D (protein) MSSFLRALTLRQLQIFVTVARHASFVRAAEELHLTQPAVSMQVKQLESVVGMALFERVKGQLTLTEPGDRLLHHASRILGEVKDAEEGLQAVKDVEQGSITIGLISTSKYFAPKLLAGFTALHPDVDLRIAEGNRETLLRLLQDNAIDLALMGRPPRELDAVSEPIAAHPHVLVASPRHPLHDAKGFDLQELRHETFLLREPGSGTRTVAEYMFRDHLFTPAKVITLGSNETIKQAVMAGMGISLLSLHTLGLELRTGEIGLLDVAGTPIERIWHVAHMSSKRLSPASESCRAYLLEHTAEFLGREYGGLMPGRRVA	6777 nmol/min/mg of protein
A167V (protein) MSSFLRALTLRQLQIFVTVARHASFVRAAEELHLTQPAVSMQVKQLESVVGMALFERVKGQLTLTEPGDRLLHHASRILGEVKDAEEGLQAVKDVEQGSITIGLISTSKYFAPKLLAGFTALHPGVDLRIAEGNRETLLRLLQDNAIDLALMGRPPRELDAVSEPIVAHPHVLVASPRHPLHDAKGFDLQELRHETFLLREPGSGTRTVAEYMFRDHLFTPAKVITLGSNETIKQAVMAGMGISLLSLHTLGLELRTGEIGLLDVAGTPIERIWHVAHMSSKRLSPASESCRAYLLEHTAEFLGREYGGLMPGRRVA	7373 nmol/min/mg of protein
D148N (protein) MSSFLRALTLRQLQIFVTVARHASFVRAAEELHLTQPAVSMQVKQLESVVGMALFERVKGQLTLTEPGDRLLHHASRILGEVKDAEEGLQAVKDVEQGSITIGLISTSKYFAPKLLAGFTALHPGVDLRIAEGNRETLLRLLQDNAINLALMGRPPRELDAVSEPIAAHPHVLVASPRHPLHDAKGFDLQELRHETFLLREPGSGTRTVAEYMFRDHLFTPAKVITLGSNETIKQAVMAGMGISLLSLHTLGLELRTGEIGLLDVAGTPIERIWHVAHMSSKRLSPASESCRAYLLEHTAEFLGREYGGLMPGRRVA	5909 nmol/min/mg of protein
L79F (protein) MSSFLRALTLRQLQIFVTVARHASFVRAAEELHLTQPAVSMQVKQLESVVGMALFERVKGQLTLTEPGDRLLHHASRIFGEVKDAEEGLQAVKDVEQGSITIGLISTSKYFAPKLLAGFTALHPGVDLRIAEGNRETLLRLLQDNAIDLALMGRPPRELDAVSEPIAAHPHVLVASPRHPLHDAKGFDLQELRHETFLLREPGSGTRTVAEYMFRDHLFTPAKVITLGSNETIKQAVMAGMGISLLSLHTLGLELRTGEIGLLDVAGTPIERIWHVAHMSSKRLSPASESCRAYLLEHTAEFLGREYGGLMPGRRVA	6840 nmol/min/mg of protein

Problem: # query: Chemoautotrophic β-galactosidase activity of entry wt CbbR: wild-type CbbR (R. eutropha), 317 amino acids, SEQ ID NO: 1 (protein) MSSFLRALTLRQLQIFVTVARHASFVRAAEELHLTQPAVSMQVKQLESVVGMALFERVKGQLTLTEPGDRLLHHASRILGEVKDAEEGLQAVKDVEQGSITIGLISTSKYFAPKLLAGFTALHPGVDLRIAEGNRETLLRLLQDNAIDLALMGRPPRELDAVSEPIAAHPHVLVASPRHPLHDAKGFDLQELRHETFLLREPGSGTRTVAEYMFRDHLFTPAKVITLGSNETIKQAVMAGMGISLLSLHTLGLELRTGEIGLLDVAGTPIERIWHVAHMSSKRLSPASESCRAYLLEHTAEFLGREYGGLMPGRRVA
Result: 3265 nmol/min/mg of protein

Problem: // returns reported Chemoautotrophic β-galactosidase activity for input P221S/T299I (protein) MSSFLRALTLRQLQIFVTVARHASFVRAAEELHLTQPAVSMQVKQLESVVGMALFERVKGQLTLTEPGDRLLHHASRILGEVKDAEEGLQAVKDVEQGSITIGLISTSKYFAPKLLAGFTALHPGVDLRIAEGNRETLLRLLQDNAIDLALMGRPPRELDAVSEPIAAHPHVLVASPRHPLHDAKGFDLQELRHETFLLREPGSGTRTVAEYMFRDHLFTSAKVITLGSNETIKQAVMAGMGISLLSLHTLGLELRTGEIGLLDVAGTPIERIWHVAHMSSKRLSPASESCRAYLLEHIAEFLGREYGGLMPGRRVA
Result: 4672 nmol/min/mg of protein

Problem: Would you kindly share the measured Chemoautotrophic β-galactosidase activity for T232I (protein) MSSFLRALTLRQLQIFVTVARHASFVRAAEELHLTQPAVSMQVKQLESVVGMALFERVKGQLTLTEPGDRLLHHASRILGEVKDAEEGLQAVKDVEQGSITIGLISTSKYFAPKLLAGFTALHPGVDLRIAEGNRETLLRLLQDNAIDLALMGRPPRELDAVSEPIAAHPHVLVASPRHPLHDAKGFDLQELRHETFLLREPGSGTRTVAEYMFRDHLFTPAKVITLGSNEIIKQAVMAGMGISLLSLHTLGLELRTGEIGLLDVAGTPIERIWHVAHMSSKRLSPASESCRAYLLEHTAEFLGREYGGLMPGRRVA ?
Result: 5005 nmol/min/mg of protein
